# Tested on: Penicillium brevicaule
# ASSAY PROCEDURE: Minimum inhibitory concentration (MIC) on malt extract agar
# Assay type: cell-based
# CONDITION DETAILS: 2 weeks incubation at 28° C., 60 to 70% relative atmospheric humidity
Please respond with reported Minimum inhibitory concentrations Penicillium brevicaule for every item in the list.

Example cases with answers are listed next.
>>> data_value("CC1(C)CN=C(Sc2cccs2)SC1")
"<50 ppm"
>>> data_value("CC1(C)CN=C(Sc2cccc(F)c2)SC1")
"<200 ppm"
>>> data_value("c1csc(SC2=NC3CCCC3CS2)c1 (stereo not drawn)")
"100 ppm"
>>> data_value("c1ccc(SC2=NC3CCCC3CS2)cc1 (stereo not drawn)")
"200 ppm"
>>> data_value("CC1CCN=C(Sc2ccccc2)S1 (stereo not drawn)")
"<50 ppm"
>>> data_value("CC1CN=C(Sc2ccc(Cl)cc2)SC1 (stereo not drawn)")
"20 ppm"
>>> data_value("COc1cccc(SC2=NCCC(C)S2)c1 (stereo not drawn)")
"<100 ppm"
>>> data_value("COc1ccc(SC2=NCC(C)CS2)cc1 (stereo not drawn)")
"<100 ppm"

Reported Minimum inhibitory concentrations Penicillium brevicaule for CC1CN=C(Sc2ccccc2)SC1 (stereo not drawn) : what is it? <50 ppm
